# Test system: C. elegans
# experimental_details: C. elegans growth and proliferation
# Format: in vivo
# condition_parameters: 250 μM; Table 7
measure: Effective inhibitor of C. elegans growth at 250 μM

COc1ccc(S(=O)(=O)NC(=O)C(Cc2ccc(I)cc2)Nc2nc(-c3ccc(Cl)c(Cl)c3)cs2)cc1 (stereo not drawn) = No
O=C(NS(=O)(=O)c1ccccc1)C(Cc1ccc(I)cc1)Nc1nc(-c2ccc(Cl)c(Cl)c2)cs1 (stereo not drawn) = Yes
O=C(NS(=O)(=O)c1ccccc1[N+](=O)[O-])C(Cc1ccc(I)cc1)Nc1nc(-c2ccc(Cl)c(Cl)c2)cs1 (stereo not drawn) = Yes

###

# tested_on: recombinant MtbUGM (Mycobacterium tuberculosis, UniProt P9WIQ1)
# Construct: made in house
# Sequence (P9WIQ1 whole entry): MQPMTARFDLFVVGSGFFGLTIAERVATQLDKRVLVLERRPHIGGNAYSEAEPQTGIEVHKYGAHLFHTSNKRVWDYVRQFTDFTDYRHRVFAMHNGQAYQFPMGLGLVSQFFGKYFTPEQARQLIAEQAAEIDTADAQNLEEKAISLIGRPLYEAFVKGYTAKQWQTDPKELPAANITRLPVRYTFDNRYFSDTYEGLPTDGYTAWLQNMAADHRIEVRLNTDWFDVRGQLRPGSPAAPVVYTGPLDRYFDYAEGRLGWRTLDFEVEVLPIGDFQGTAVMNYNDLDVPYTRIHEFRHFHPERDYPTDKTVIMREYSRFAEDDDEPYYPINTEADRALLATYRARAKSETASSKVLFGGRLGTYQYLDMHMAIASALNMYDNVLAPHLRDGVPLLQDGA
# experimental_details: biochemical
# condition_parameters: 100 μM; mean of two replicates; read-out: % inhib MtbUGM (100 μM)
measure: inhibition at 100 µM (%)
The reply should contain only the number, in %.

Before answering, review these 5 worked examples.
CS(=O)(=O)NC(=O)CC1Sc2nnc(Cc3ccc(Br)cc3)n2N=C1c1ccc(Cl)cc1 (centres unmarked) = 58
O=C(O)CC1Sc2nnc(Cc3ccc(Br)cc3)n2N=C1c1ccc(F)cc1 (centres unmarked) = 39
O=C(O)CC1Sc2nnc(Cc3ccc(-c4ccccc4)cc3)n2N=C1c1ccc(Cl)c(Cl)c1 (centres unmarked) = 100
C=CCNC(=O)CC1Sc2nnc(Cc3ccc(Br)cc3)n2N=C1c1ccc(Cl)cc1 (centres unmarked) = 0
O=C(O)CC1Sc2nnc(Cc3ccc4ccccc4c3)n2N=C1c1ccc(Cl)cc1 (centres unmarked) = 88

-- ask Return reported inhibition at 100 µM. Input compound: COC(=O)CC1Sc2nnc(Cc3ccc(Br)cc3)n2N=C1c1ccc(Cl)cc1 (centres unmarked)
-- reply 0

-- ask Return reported inhibition at 100 µM. Input compound: Cc1ccc(C2=Nn3c(Cc4ccc(Br)cc4)nnc3SC2CC(=O)O)c(C)c1 (centres unmarked)
-- reply 0

-- ask Return reported inhibition at 100 µM. Input compound: O=C(O)CC1Sc2nnc(CCc3ccc(Br)cc3)n2N=C1c1ccc(Cl)cc1 (centres unmarked)
-- reply 69

###

Quick reference: inhibition at 100 µM of the listed items.
# tested_on: recombinant MtbUGM (Mycobacterium tuberculosis, UniProt P9WIQ1)
# Construct: made in house
# experimental_details: biochemical
# condition_parameters: 100 μM; mean of two replicates; read-out: % inhib MtbUGM (100 μM)
The reply should contain only the number, in %.

COc1ccc(C2=Nn3c(Cc4ccc(Br)cc4)nnc3SC2CC(=O)O)cc1 (stereo not drawn) [Compound 22] = 44
Cc1ccc(C2=Nn3c(Cc4ccc(Br)cc4)nnc3SC2CC(=O)O)cc1 (stereo not drawn) [Compound 21] = 63

Let us move to another entry and its inhibition at 100 µM.
-- ask Return reported inhibition at 100 µM. Input compound: O=C(CC1Sc2nnc(Cc3ccc(Br)cc3)n2N=C1c1ccc(Cl)cc1)NS(=O)(=O)c1ccccc1 (stereo not drawn) [Compound 13]
-- reply 94

###

# System: M. smegmatis
# experimental_details: Microplate Alamar Blue Assay (MIC, liquid culture)
# Format: cell-based
# condition_parameters: Mycolicibacterium smegmatis; Table 3; liquid media, at least 99% growth inhibition
Quick reference: MIC of the listed items.
The reply should contain only the number, in µM.

Before answering, review these 5 worked examples.
O=C(NS(=O)(=O)c1ccc([N+](=O)[O-])cc1)C(Cc1ccc(I)cc1)Nc1nc(-c2ccc(Cl)c(Cl)c2)cs1 (stereo not drawn) = 50
Cc1ccc(S(=O)(=O)NC(=O)C(Cc2ccc(I)cc2)Nc2nc(-c3ccc(Cl)c(Cl)c3)cs2)cc1 (stereo not drawn) = 12.5
COc1ccc(S(=O)(=O)NC(=O)C(Cc2ccc(I)cc2)Nc2nc(-c3ccc(Cl)c(Cl)c3)cs2)cc1 (stereo not drawn) = 25
CS(=O)(=O)NC(=O)C(Cc1ccc(I)cc1)Nc1nc(-c2ccc(Cl)c(Cl)c2)cs1 (stereo not drawn) = 25
O=C(NS(=O)(=O)c1ccccc1)C(Cc1ccc(I)cc1)Nc1nc(-c2ccc(Cl)c(Cl)c2)cs1 (stereo not drawn) = 25

-- ask Return reported MIC. Input molecule: O=C(NS(=O)(=O)c1ccc(Cl)cc1)C(Cc1ccc(I)cc1)Nc1nc(-c2ccc(Cl)c(Cl)c2)cs1 (stereo not drawn)
-- reply 12.5

-- ask Return reported MIC. Input molecule: O=C(NS(=O)(=O)C(F)(F)F)C(Cc1ccc(I)cc1)Nc1nc(-c2ccc(Cl)c(Cl)c2)cs1 (stereo not drawn)
-- reply 50

-- ask Return reported MIC. Input molecule: O=C(NS(=O)(=O)c1ccccc1[N+](=O)[O-])C(Cc1ccc(I)cc1)Nc1nc(-c2ccc(Cl)c(Cl)c2)cs1 (stereo not drawn)
-- reply 12.5

-- ask Return reported MIC. Input molecule: O=C(O)C(Cc1ccc(I)cc1)Nc1nc(-c2ccc(Cl)c(Cl)c2)cs1 (stereo not drawn)
-- reply 50

###

# tested_on: recombinant MtbUGM (Mycobacterium tuberculosis)
# Construct: made in house
# experimental_details: biochemical
# condition_parameters: read-out: % inhib MtbUGM (10 μM)
Quick reference: inhibition at 10 µM of the listed items.
The reply should contain only the number, in %.

Before answering, review these 3 worked examples.
O=C(CC1Sc2nnc(Cc3ccc(Br)cc3)n2N=C1c1ccc(Cl)cc1)NS(=O)(=O)c1cccs1 (stereo not shown) = 18
O=C(CC1Sc2nnc(Cc3ccc(Br)cc3)n2N=C1c1ccc(Cl)cc1)NS(=O)(=O)c1ccc(Cl)s1 (stereo not shown) = 35
O=C(CC1Sc2nnc(Cc3ccc(Br)cc3)n2N=C1c1ccc(Cl)c(Cl)c1)NS(=O)(=O)c1ccccc1 (stereo not shown) = 51

-- ask Return reported inhibition at 10 µM. Input compound: O=C(CC1Sc2nnc(Cc3ccc(-c4ccccc4)cc3)n2N=C1c1ccc(Cl)c(Cl)c1)NS(=O)(=O)c1ccccc1 (stereo not shown)
-- reply 85

###

# tested_on: recombinant MtbUGM (Mycobacterium tuberculosis, UniProt P9WIQ1)
# Construct: made in house
# experimental_details: biochemical
# condition_parameters: 100 μM; mean of two replicates; read-out: % inhib MtbUGM (100 μM)
measure: inhibition at 100 µM (%)
The reply should contain only the number, in %.

C=CCNC(=O)CC1Sc2nnc(-c3cccs3)n2N=C1c1ccc(Cl)cc1 (centres unmarked) = 0
O=C(O)CC1Sc2nnc(Cc3ccccc3)n2N=C1c1ccc(Cl)cc1 (centres unmarked) = 43
O=C(O)CC1Sc2nnc(Cc3ccc(Br)cc3)n2N=C1c1ccc(Cl)cc1 (centres unmarked) = 72
Cc1ccc(C2=Nn3c(Cc4ccc(Br)cc4)nnc3SC2CC(=O)O)cc1C (centres unmarked) = 80
O=C(O)CC1Sc2nnc(-c3ccc(Br)cc3)n2N=C1c1ccc(Cl)cc1 (centres unmarked) = 41

-- ask Return reported inhibition at 100 µM. Input molecule: O=C(O)CC1Sc2nnc(-c3cccs3)n2N=C1c1ccc(Cl)cc1 (centres unmarked)
-- reply 50

-- ask Return reported inhibition at 100 µM. Input molecule: O=C(O)CC1Sc2nnc(Cc3ccc(Br)cc3)n2N=C1c1ccc(-c2ccccc2)cc1 (centres unmarked)
-- reply 100

-- ask Return reported inhibition at 100 µM. Input molecule: O=C(O)CC1Sc2nnc(Cc3ccc(Br)cc3)n2N=C1c1ccc(C(F)(F)F)cc1 (centres unmarked)
-- reply 57
